These measurements were taken from the supplement of paper PMC11061612.

System: NCI-H2009 (Lung Adenocarcinoma);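 note: after 72 h of two-drug dosing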
METHOD NOTES: Bliss excess, mean over the matrix (fraction); higher = more synergy
In this section we review reported Bliss excess values for a set of compounds.
Give the figure by itself; no unit, no explanation.

Reference set, count: 3
COMPOUND	Bliss excess
COc1cc2c(cc1OCCCCCOc1cc3c(cc1OC)C(=O)N1C=C(C)C[C@H]1C=N3)N=C[C@@H]1CC(C)=CN1C2=O [SG3199] + O=C(c1cc(Cc2n[nH]c(=O)c3ccccc23)ccc1F)N1CCN(C(=O)C2CC2)CC1 [Olaparib] (first compound max 0.001 µM, 7x7, partner max 10 µM)	-0.0297
C=CCn1c(=O)c2cnc(Nc3ccc(N4CCN(C)CC4)cc3)nc2n1-c1cccc(C(C)(C)O)n1 [AZD1775] + Nc1ccn([C@@H]2O[C@H](CO)[C@@H](O)C2(F)F)c(=O)n1 [Gemcitabine] (first compound max 1 µM, partner max 0.3 µM)	0.0606
Cc1cc2ncnn2cc1Nc1ncc2c(n1)n(C1CCOCC1)c(=O)n2C [AZD7648] + CCN(CCO)CCCOc1ccc2c(Nc3cc(CC(=O)Nc4cccc(F)c4)[nH]n3)ncnc2c1 [AZD2811] (first compound max 10 µM, 7x7, partner max 1 µM)	0.0669

Q: Request the reported Bliss excess associated with C[C@@H]1COCCN1c1cc(C2([S@](C)(=N)=O)CC2)nc(-c2ccnc3[nH]ccc23)n1 [AZD6738] + O=C(c1cc(Cc2n[nH]c(=O)c3ccccc23)ccc1F)N1CCN(C(=O)C2CC2)CC1 [Olaparib] (first compound max 10 µM, 7x7, partner max 10 µM)
A: 0.0046

Q: Entry Cc1cc2ncnn2cc1Nc1ncc2c(n1)n(C1CCOCC1)c(=O)n2C [AZD7648] + C[C@@H]1COCCN1C2=NC(=NC(=C2)C3(CC3)[S@](=N)(=O)C)C4=C5C=CNC5=NC=C4 [AZD6738] (first compound max 10 µM, 7x7, partner max 10 µM) has what Bliss excess?
A: 0.0494

Q: // returns reported Bliss excess for input Cc1cc2ncnn2cc1Nc1ncc2c(n1)n(C1CCOCC1)c(=O)n2C [AZD7648] + COc1cc([C@@H]2c3cc4c(cc3[C@@H](O[C@@H]3O[C@@H]5CO[C@@H](C)O[C@H]5[C@H](O)[C@H]3O)[C@H]3COC(=O)[C@H]23)OCO4)cc(OC)c1O [Etoposide] (first compound max 10 µM, 7x7, partner max 10 µM)
A: 0.116

Q: Data request, read-out Bliss excess, for COc1cccc2c1C(=O)c1c(O)c3c(c(O)c1C2=O)C[C@@](O)(C(=O)CO)C[C@@H]3O[C@H]1C[C@H](N)[C@H](O)[C@H](C)O1 [Doxorubicin] + Cc1cc2ncnn2cc1Nc1ncc2c(n1)n(C1CCOCC1)c(=O)n2C [AZD7648] (first compound max 1 µM, 7x7, partner max 10 µM)
A: 0.0653

Q: Item Cc1nc(-c2cn3c(n2)-c2ccc(-c4cnn(C(C)(C)C(N)=O)c4)cc2OCC3)n(C(C)C)n1 [Taselisib] + O=C(Nc1ccc2[nH]nc(-c3ccncc3)c2c1)[C@@H]1CCN(CC(=O)N2CCN(c3ccc(-c4ncccn4)cc3)CC2)C1 [SCH772984] (first compound max 10 µM, 7x7, partner max 5 µM) has what recorded Bliss excess?
A: 0.0964
